Hey, just so you know, these numbers are from PubChem BioAssay.

assay: stimulators of nuclear beta-catenin in C2C12, primary screen, imaging, WNT3A-conditioned medium, mouse C2C12, NPC library (AID 1117326); conditions: stimulation, at 2 µM, stronger effect = higher value; also: reference of the scale not given here

[
  {
    "Compound": "c1ccc2sc(SN3CCOCC3)nc2c1",
    "nuclear beta-catenin stimulation (%)": 2.1
  },
  {
    "Compound": "Oc1cc(O)cc(O)c1",
    "nuclear beta-catenin stimulation (%)": 2.8
  },
  {
    "Compound": "Cc1cnc(NS(=O)(=O)c2ccc(N)cc2)nc1",
    "nuclear beta-catenin stimulation (%)": -0.7
  },
  {
    "Compound": "CN(C)CCC=C1c2ccccc2CCc2ccccc21",
    "nuclear beta-catenin stimulation (%)": 1.1
  },
  {
    "Compound": "NS(=O)(=O)c1cc2c(cc1Cl)NC=NS2(=O)=O",
    "nuclear beta-catenin stimulation (%)": 3
  },
  {
    "Compound": "Cn1c(=O)c2[nH]c(Br)nc2n(C)c1=O",
    "nuclear beta-catenin stimulation (%)": 2
  },
  {
    "Compound": "CCCCCN=C(N)N/N=C/c1c[nH]c2ccc(OC)cc12",
    "nuclear beta-catenin stimulation (%)": 5.8
  },
  {
    "Compound": "O=C(O)c1ccccc1Nc1cc(Cl)ccc1C(=O)O",
    "nuclear beta-catenin stimulation (%)": -1.8
  },
  {
    "Compound": "O=C(CN1CCNCC1)NC1CCCCC1",
    "nuclear beta-catenin stimulation (%)": 0.3
  },
  {
    "Compound": "CCCCC(=O)OCC(=O)[C@H]1[C@H](C)C[C@H]2[C@@H]3C[C@H](F)C4=CC(=O)C=C[C@]4(C)[C@@]3(F)[C@@H](O)C[C@@]21C",
    "nuclear beta-catenin stimulation (%)": -1.4
  },
  {
    "Compound": "NC12CC3CC(CC(C3)C1)C2",
    "nuclear beta-catenin stimulation (%)": 1.9
  },
  {
    "Compound": "CN[C@@H]1[C@H](O)[C@H](NC)[C@H]2O[C@@]3(O)C(=O)C[C@@H](C)O[C@H]3O[C@@H]2[C@H]1O",
    "nuclear beta-catenin stimulation (%)": 3.5
  },
  {
    "Compound": "CCCCCCCC(=O)OCC(O)CO (centres undefined)",
    "nuclear beta-catenin stimulation (%)": -1.7
  },
  {
    "Compound": "c1ccc2[nH]c(-c3cscn3)nc2c1",
    "nuclear beta-catenin stimulation (%)": 1.4
  },
  {
    "Compound": "O=C(O)c1ccc(OCCCOc2ccc(C(=O)O)cc2)cc1",
    "nuclear beta-catenin stimulation (%)": 0.7
  },
  {
    "Compound": "N[C@@H](Cc1cc(I)c(O)c(I)c1)C(=O)O",
    "nuclear beta-catenin stimulation (%)": 3.2
  },
  {
    "Compound": "CCCCOCCOC(=O)c1cccnc1",
    "nuclear beta-catenin stimulation (%)": -0.3
  },
  {
    "Compound": "C[C@@H]1O[C@@H](OC[C@H]2O[C@@H](Oc3c(-c4ccc(O)c(O)c4)oc4cc(O)cc(O)c4c3=O)[C@H](O)[C@@H](O)[C@@H]2O)[C@H](O)[C@H](O)[C@H]1O",
    "nuclear beta-catenin stimulation (%)": 1.9
  },
  {
    "Compound": "CCc1nnc(NS(=O)(=O)c2ccc(N)cc2)s1",
    "nuclear beta-catenin stimulation (%)": 2
  },
  {
    "Compound": "O=C(O)Cn1cnnn1",
    "nuclear beta-catenin stimulation (%)": -0.1
  },
  {
    "Compound": "CC1(C)O[C@@H]2[C@@H](CO[C@@]3(COS(N)(=O)=O)OC(C)(C)O[C@@H]23)O1",
    "nuclear beta-catenin stimulation (%)": 0.6
  },
  {
    "Compound": "OC(CCN1CCCC1)(c1ccccc1)C1CCCCC1 (centres undefined)",
    "nuclear beta-catenin stimulation (%)": 4.9
  },
  {
    "Compound": "COc1cc(C(=S)N2CCOCC2)ccc1O",
    "nuclear beta-catenin stimulation (%)": 0
  },
  {
    "Compound": "CNCCCC12CCC(c3ccccc31)c1ccccc12",
    "nuclear beta-catenin stimulation (%)": -0.1
  },
  {
    "Compound": "CCc1cccc2c(CCO)c[nH]c12",
    "nuclear beta-catenin stimulation (%)": 0.4
  },
  {
    "Compound": "CCO[C@@H]1O[C@H](C(COCc2ccccc2)OCc2ccccc2)[C@H](OCc2ccccc2)[C@H]1O (some centres undefined)",
    "nuclear beta-catenin stimulation (%)": -1.2
  },
  {
    "Compound": "c1ccc(OCc2ccc(CCCN3CCOCC3)cc2)cc1",
    "nuclear beta-catenin stimulation (%)": 0.3
  },
  {
    "Compound": "O=C(O)CNC(=O)c1ccccc1I",
    "nuclear beta-catenin stimulation (%)": 1.7
  },
  {
    "Compound": "CCOC(=O)Cn1cccc1-c1nc(-c2ccc(OC)cc2)c(-c2ccc(OC)cc2)s1",
    "nuclear beta-catenin stimulation (%)": -1.4
  },
  {
    "Compound": "CC(C)C(=O)Nc1cccc(C(F)(F)F)c1",
    "nuclear beta-catenin stimulation (%)": 1.2
  },
  {
    "Compound": "CCOC(=O)CN1CCCC1=O",
    "nuclear beta-catenin stimulation (%)": 21
  },
  {
    "Compound": "Cc1ccccc1N1CCN(CCc2nnc3n2CCCC3)CC1",
    "nuclear beta-catenin stimulation (%)": 0
  },
  {
    "Compound": "CC1(C)S[C@@H]2[C@H](NC(=O)C(C(=O)Oc3ccc4c(c3)CCC4)c3ccccc3)C(=O)N2[C@H]1C(=O)O (some centres undefined)",
    "nuclear beta-catenin stimulation (%)": 0.4
  },
  {
    "Compound": "CCOC(=O)Oc1ccc(CCNC(=O)[C@H](CCSC)NC(C)=O)cc1OC(=O)OCC",
    "nuclear beta-catenin stimulation (%)": 1.3
  },
  {
    "Compound": "CCCCCCCCCCCCCC[N+](C)(C)Cc1ccccc1",
    "nuclear beta-catenin stimulation (%)": -0.7
  },
  {
    "Compound": "CC(C(O)c1ccccc1)N(C)CCOC(c1ccccc1)c1ccccc1 (centres undefined)",
    "nuclear beta-catenin stimulation (%)": 2.3
  },
  {
    "Compound": "O=C(CCCN1CC=C(n2c(=O)[nH]c3ccccc32)CC1)c1ccc(F)cc1",
    "nuclear beta-catenin stimulation (%)": 0.3
  },
  {
    "Compound": "COc1ccc(C=CC(=O)O)cc1",
    "nuclear beta-catenin stimulation (%)": 0
  },
  {
    "Compound": "CCCCC(CC)CNC(=O)CC(C)OC(=O)CCC(=O)O (centres undefined)",
    "nuclear beta-catenin stimulation (%)": -0.8
  },
  {
    "Compound": "CN1CCN(C(=O)C2CCCCC2)CC1",
    "nuclear beta-catenin stimulation (%)": -0.3
  },
  {
    "Compound": "COC[C@@H](c1ccc(C(F)(F)F)cc1)N1CCN(C2(C)CCN(C(=O)c3c(C)ncnc3C)CC2)C[C@H]1C",
    "nuclear beta-catenin stimulation (%)": 2.3
  },
  {
    "Compound": "CC(C)(Oc1ccc(Cl)cc1)C(=O)OCCCOC(=O)C(C)(C)Oc1ccc(Cl)cc1",
    "nuclear beta-catenin stimulation (%)": 2.2
  },
  {
    "Compound": "C/C(=C(/OCCOc1ccc(Cl)cc1)c1ccc(Cl)cc1Cl)n1ccnc1",
    "nuclear beta-catenin stimulation (%)": 1.3
  },
  {
    "Compound": "CN[C@H](CC(C)C)C(=O)N[C@H]1C(=O)N[C@@H](CC(N)=O)C(=O)N[C@H]2C(=O)N[C@H]3C(=O)N[C@H](C(=O)N[C@H](C(=O)O)c4cc(O)cc(O)c4-c4cc3ccc4O)[C@H](O)c3ccc(c(Cl)c3)Oc3cc2cc(c3O[C@@H]2OC(CO)[C@@H](O)[C@H](O)[C@@H]2O[C@H]2C[C@](C)(N)[C@H](O)[C@H](C)O2)Oc2ccc(cc2Cl)[C@H]1O (some centres undefined)",
    "nuclear beta-catenin stimulation (%)": 2.4
  }
]
